Values were extracted from ChEMBL document CHEMBL1136404.

experiment: Inhibitory activity against GalNAc transferase 1 at a concentration of 200 uM
quantity: inhibition (%)

{"compound": "CC(=O)N[C@@H]1[C@H](OP(=O)(O)OP(=O)(O)OC[C@H]2O[C@@H](n3ccc(=O)[nH]c3=O)[C@H](O)[C@@H]2O)O[C@@H](CO)[C@H](O)[C@H]1O", "experimental.result": 39}

[1] COC1C(CO)OC(OP(=O)(O)OP(=O)(O)OC[C@H]2OC(n3ccc(=O)[nH]c3=O)[C@H](O)[C@@H]2O)C(NC(C)=O)C1O (some centres undefined)
[2] COCC1OC(OP(=O)(O)OP(=O)(O)OC[C@H]2OC(n3ccc(=O)[nH]c3=O)[C@H](O)[C@@H]2O)C(NC(C)=O)C(O)C1O (some centres undefined)
[3] COC1C(O)C(CO)OC(OP(=O)(O)OP(=O)(O)OC[C@H]2OC(n3ccc(=O)[nH]c3=O)[C@H](O)[C@@H]2O)C1NC(C)=O (some centres undefined)
Q: Order the items by recorded inhibition; the first position goes to the largest value. The reply should contain the labels ordered as requested.
Ans: 3, 2, 1
(3: 30%, 2: 17%, 1: 7%)

---

assay: Inhibitory activity against GalNAc transferase 1 at a concentration of 1000 uM
quantity: inhibition (%)

{"compound": "COC1C(O)C(CO)OC(OP(=O)(O)OP(=O)(O)OC[C@H]2OC(n3ccc(=O)[nH]c3=O)[C@H](O)[C@@H]2O)C1NC(C)=O (some centres undefined)", "quantity": "inhibition", "experimental.result": 74}
{"compound": "CC(=O)N[C@@H]1[C@H](OP(=O)(O)OP(=O)(O)OC[C@H]2O[C@@H](n3ccc(=O)[nH]c3=O)[C@H](O)[C@@H]2O)O[C@@H](CO)[C@H](O)[C@H]1O", "quantity": "inhibition", "experimental.result": 79}
{"compound": "COCC1OC(OP(=O)(O)OP(=O)(O)OC[C@H]2OC(n3ccc(=O)[nH]c3=O)[C@H](O)[C@@H]2O)C(NC(C)=O)C(O)C1O (some centres undefined)", "quantity": "inhibition", "experimental.result": 76}
{"compound": "COC1C(CO)OC(OP(=O)(O)OP(=O)(O)OC[C@H]2OC(n3ccc(=O)[nH]c3=O)[C@H](O)[C@@H]2O)C(NC(C)=O)C1O (some centres undefined)", "quantity": "inhibition", "experimental.result": 72}
